Data credit: PubChem BioAssay AID588473

Recorded activation, one value per entry.
test system: CRF-binding protein / CRF receptor 2 complex (human); assay: agonists of CRF-BP/CRF-R2 complex, primary screen, cell-based, HEK293, calcium dye fluorescence, uHTS (AID 588473); conditions: calcium dye fluorescence (FLIPR), at 13.2 µM, hits give high values, percent of saturating CRF peptide response;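 further: plate controls were neutral control wells without compound for no effect and CRF at EC100 for full effect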
In all, about 350,000 compounds went through this assay and about 1,600 (0.46%) were called active. This excerpt belongs to a sample that is enriched for actives.
value_type: activation (%)

>  <compound>
CC(C)CC(O)C1CCN(C(=O)CCc2nnc(-c3ccc4c(c3)OCO4)o2)CC1 (stereo not given)

>  <value_type>
activation

>  <observed_value>
-0.38

$$$$
>  <compound>
COc1cccc2cc(S(=O)(=O)c3ccc(C)cc3)/c(=N/NS(=O)(=O)c3ccc(C)cc3)oc12

>  <value_type>
activation

>  <observed_value>
2.38

$$$$
>  <compound>
CCCCCCc1cc2cc(-c3nnc(-c4ccccc4)o3)c(=O)oc2cc1O

>  <value_type>
activation

>  <observed_value>
269

$$$$
>  <compound>
Cc1ccc(-c2nn(-c3ccccc3)cc2/C=C2\SC(=S)N(CCCCCC(=O)O)C2=O)o1

>  <value_type>
activation

>  <observed_value>
60.7

$$$$
>  <compound>
Cc1cc(S(=O)(=O)c2cc3ccc(O)c(C)c3oc2=O)ccc1F

>  <value_type>
activation

>  <observed_value>
91.1

$$$$
>  <compound>
COc1ccc(/C=C2/SC(=O)N(CCCCCC(=O)Nc3ccccc3C(=O)O)C2=S)cc1

>  <value_type>
activation

>  <observed_value>
-2.58

$$$$
>  <compound>
CCc1ccc(CN(C)C(=O)CCc2nnc(-c3ccc(-c4ccccc4)cc3)o2)nc1

>  <value_type>
activation

>  <observed_value>
-0.63

$$$$
>  <compound>
CCOC(=O)CSC1=N/C(=C/c2ccc(-n3cncn3)cc2)C(=O)N1C(C)=O

>  <value_type>
activation

>  <observed_value>
1.8

$$$$
>  <compound>
CCOC(=O)N1CCN(C(=O)c2nn(-c3ccc(C)cc3)c(=O)c3c2c2ccccc2n3C)CC1

>  <value_type>
activation

>  <observed_value>
3.98

$$$$
>  <compound>
O=C(/C=C/c1ccc(N2CCOCC2)cc1)c1ccccc1

>  <value_type>
activation

>  <observed_value>
89.1

$$$$
